Target: αvβ3 integrin (Homo sapiens, UniProt P05106+P06756)
Sequence (P06756 31-889 limits assumed): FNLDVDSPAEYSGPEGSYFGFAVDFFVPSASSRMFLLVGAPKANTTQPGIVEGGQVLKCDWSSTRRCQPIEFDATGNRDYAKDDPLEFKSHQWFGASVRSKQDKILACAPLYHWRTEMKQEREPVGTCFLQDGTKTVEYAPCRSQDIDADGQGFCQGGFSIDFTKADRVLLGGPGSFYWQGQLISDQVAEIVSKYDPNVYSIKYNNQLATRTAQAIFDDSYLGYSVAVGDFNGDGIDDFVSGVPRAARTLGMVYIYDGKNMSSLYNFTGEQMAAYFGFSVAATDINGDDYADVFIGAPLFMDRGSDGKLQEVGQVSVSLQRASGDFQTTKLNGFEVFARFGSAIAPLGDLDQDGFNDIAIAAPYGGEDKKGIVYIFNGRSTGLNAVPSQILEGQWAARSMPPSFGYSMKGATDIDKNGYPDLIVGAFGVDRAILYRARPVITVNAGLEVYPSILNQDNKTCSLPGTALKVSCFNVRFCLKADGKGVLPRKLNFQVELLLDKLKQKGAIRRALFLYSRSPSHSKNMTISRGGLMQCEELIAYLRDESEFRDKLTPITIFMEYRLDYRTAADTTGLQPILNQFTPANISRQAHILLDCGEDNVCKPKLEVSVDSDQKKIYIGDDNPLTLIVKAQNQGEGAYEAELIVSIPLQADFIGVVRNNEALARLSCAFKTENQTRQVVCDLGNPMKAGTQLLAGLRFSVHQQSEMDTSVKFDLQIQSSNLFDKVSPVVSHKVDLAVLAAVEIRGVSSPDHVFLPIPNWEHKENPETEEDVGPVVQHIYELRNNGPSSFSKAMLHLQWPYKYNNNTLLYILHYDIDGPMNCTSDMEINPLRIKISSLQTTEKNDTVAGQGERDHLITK
Sequence (P06756 891-1048 partner limits assumed): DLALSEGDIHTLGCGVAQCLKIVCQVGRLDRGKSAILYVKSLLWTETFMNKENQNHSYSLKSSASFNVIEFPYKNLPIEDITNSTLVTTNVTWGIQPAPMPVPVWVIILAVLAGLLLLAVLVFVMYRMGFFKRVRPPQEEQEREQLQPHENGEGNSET
Sequence (P05106 27-788): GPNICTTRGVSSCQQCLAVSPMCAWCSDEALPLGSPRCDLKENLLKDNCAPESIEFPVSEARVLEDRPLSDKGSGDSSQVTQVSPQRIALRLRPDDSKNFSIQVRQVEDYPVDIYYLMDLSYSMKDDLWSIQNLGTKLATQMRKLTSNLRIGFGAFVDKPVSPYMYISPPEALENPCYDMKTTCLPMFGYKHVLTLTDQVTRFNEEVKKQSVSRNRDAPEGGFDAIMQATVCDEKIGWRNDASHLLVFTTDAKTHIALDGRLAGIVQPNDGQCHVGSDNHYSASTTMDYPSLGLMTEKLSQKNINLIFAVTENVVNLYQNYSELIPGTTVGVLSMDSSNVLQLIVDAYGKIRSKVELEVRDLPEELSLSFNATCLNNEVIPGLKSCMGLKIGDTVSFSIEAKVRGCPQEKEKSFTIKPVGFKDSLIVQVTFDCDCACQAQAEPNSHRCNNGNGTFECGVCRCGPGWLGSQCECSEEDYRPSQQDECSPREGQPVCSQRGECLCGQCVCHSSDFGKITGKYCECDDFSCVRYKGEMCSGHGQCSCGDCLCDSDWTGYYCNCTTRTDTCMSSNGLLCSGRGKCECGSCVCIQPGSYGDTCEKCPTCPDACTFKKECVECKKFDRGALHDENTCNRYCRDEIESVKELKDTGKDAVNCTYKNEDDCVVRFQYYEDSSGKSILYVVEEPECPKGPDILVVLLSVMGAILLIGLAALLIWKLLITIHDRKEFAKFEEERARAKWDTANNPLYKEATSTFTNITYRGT
Experiment: Inhibition of FITC-Echistatin binding to αvβ3-K562 cells (flow cytometry)
Parameters: expressed in transfected cells; host or cells: K562 (gift of Dr. Yoshikazu Takada, UC Davis)
Settings: LXW1-8: inhibition of binding of FITC-Echistatin against αvβ3-K562; class symbols; read-out: IC50
Experimental: The samples were analyzed with Coulter XL-MCL flow cytometry. The histogram and mean fluorescence intensity (MFI) were determined. The apparent Kd, IC50 were calculated using Graph Prism software (≦www.graphpad.com≧).
pIC50: −log10 of the molar value. Bridge positions count the residues as written; N and C are the ends. Square brackets hold non-standard residues; d marks the D form. Peptide text beside a SMILES is read from it.
Here, each record is paired with measured pIC50 data.

N=C(N)NCCC[C@@H]1NC(=O)CNC(=O)[C@H](N)CSSC[C@H](C(N)=O)NC(=O)[C@@H](CCC(=O)O)NC(=O)[C@@H](CO)NC(=O)[C@H](CC(=O)O)NC(=O)CNC1=O [LXW3, cGRGDsec] (H-[dC]GRGD[dS][dE][dC]-NH2; disulfide 1-8) :: > 6.00

input: Return the recorded pIC50 value; entry: N=C(N)NCCC[C@@H]1NC(=O)CNC(=O)[C@H](N)CSSC[C@H](C(N)=O)NC(=O)[C@@H](Cc2ccccc2)NC(=O)[C@@H](CO)NC(=O)[C@H](CC(=O)O)NC(=O)CNC1=O [LXW1, cGRGDsfc] (H-[dC]GRGD[dS][dF][dC]-NH2; disulfide 1-8)
output: 5.00 to 6.00

input: Answer with the recorded pIC50 of CC(C)[C@H]1NC(=O)[C@@H](CC(=O)O)NC(=O)[C@H](CC(=O)O)NC(=O)CNC(=O)[C@H](CCCNC(=N)N)NC(=O)CNC(=O)[C@H](N)CSSC[C@H](C(N)=O)NC1=O [LXW7, cGRGDdvc] (H-[dC]GRGD[dD][dV][dC]-NH2; disulfide 1-8) only.
output: > 6.00

input: Note pIC50 for the compound shown: N=C(N)NCCC[C@@H]1NC(=O)CNC(=O)[C@H](N)CSSC[C@H](C(N)=O)NC(=O)[C@@H](Cc2ccccc2)NC(=O)[C@@H](CC(=O)O)NC(=O)[C@H](CC(=O)O)NC(=O)CNC1=O [LXW2, cGRGDdfc] (H-[dC]GRGD[dD][dF][dC]-NH2; disulfide 1-8)
output: 5.00 to 6.00

input: Please give the documented pIC50 of N=C(N)NCCC[C@@H]1NC(=O)CNC(=O)[C@H](N)CSSC[C@H](C(N)=O)NC(=O)[C@@H](CO)NC(=O)[C@@H](CC(=O)O)NC(=O)[C@H](CC(=O)O)NC(=O)CNC1=O [LXW5, cGRGDdsc] (H-[dC]GRGD[dD][dS][dC]-NH2; disulfide 1-8)
output: 5.00 to 6.00
